molecular target: muscarinic acetylcholine receptors; experiment: inhibition of specific binding of ^3 H-Oxotremorine-M (^3 H-Oxo); conditions: ^3 H-Oxotremorine 1.0 nM, rat cortex, 30 min. at 25° C.
The entries below come with measured IC50 values attached.
Answer format reminder: number followed by unit.

c1ccc(CCCCSc2nsnc2OC2CN3CCC2CC3)cc1 (racemic) [Compound 148]: 8 nM
C(=Cc1ccccc1)CSc1nsnc1OC1CN2CCC1CC2 (racemic) [Compound 149]: 14 nM
c1nsnc1OCCOc1nsnc1OC1CN2CCC1CC2 (racemic) [Compound 132]: 11 nM
CCCCCCSc1nsnc1OC1CN2CCC1CC2 (racemic) [Compound 17]: 5.2 nM
CC#CCOc1nsnc1O[C@@H]1CN2CCC[C@H]1C2 (relative stereo) [Compound 168]: 1 nM

In: // returns reported IC50 for input c1csc(CCCOc2nsnc2O[C@@H]2CN3CCC[C@H]2C3)c1 (relative stereo) [Compound 206]
Out: 6.1 nM

In: // returns reported IC50 for input CCCCOc1nsnc1OC1CCN(C)C1 (racemic) [Compound 28]
Out: 37 nM

In: // returns reported IC50 for input FC(F)(F)c1ccc(CCCSc2nsnc2OC2CN3CCC2CC3)cc1 (racemic) [Compound 74]
Out: 24 nM

In: // returns reported IC50 for input FC(F)(F)C(F)(F)C(F)(F)COc1nsnc1OC1CN2CCC1CC2 (racemic) [Compound 69]
Out: 29 nM

In: // returns reported IC50 for input CCCS(=O)(=O)c1nsnc1OC1CN2CCC1CC2 (racemic) [Compound 103]
Out: 107 nM

In: // returns reported IC50 for input CCCCOc1nsnc1OC[C@@H]1CCCN1C [Compound 31]
Out: 32 nM

In: // returns reported IC50 for input CCCCSc1nsnc1O[C@@H]1CN2CC[C@@H]1C2 (relative stereo) [Compound 131]
Out: 5.6 nM

In: // returns reported IC50 for input CCCCOc1nsnc1OC[C@@H]1CCCN1 [Compound 32]
Out: 77 nM

In: // returns reported IC50 for input C#CCCOc1nsnc1OC1CN2CCC1CC2 (racemic) [Compound 113]
Out: 3.6 nM

----------
The entries below come with measured IC50 values attached.
Molecular target: muscarinic receptors (M1 -site, pirenzepine sensitive site) (Rattus norvegicus, UniProt P08482)
Construct: from tissue; host or cells: cerebral cortex membranes of male Wistar rats
Sequence (P08482 1-460): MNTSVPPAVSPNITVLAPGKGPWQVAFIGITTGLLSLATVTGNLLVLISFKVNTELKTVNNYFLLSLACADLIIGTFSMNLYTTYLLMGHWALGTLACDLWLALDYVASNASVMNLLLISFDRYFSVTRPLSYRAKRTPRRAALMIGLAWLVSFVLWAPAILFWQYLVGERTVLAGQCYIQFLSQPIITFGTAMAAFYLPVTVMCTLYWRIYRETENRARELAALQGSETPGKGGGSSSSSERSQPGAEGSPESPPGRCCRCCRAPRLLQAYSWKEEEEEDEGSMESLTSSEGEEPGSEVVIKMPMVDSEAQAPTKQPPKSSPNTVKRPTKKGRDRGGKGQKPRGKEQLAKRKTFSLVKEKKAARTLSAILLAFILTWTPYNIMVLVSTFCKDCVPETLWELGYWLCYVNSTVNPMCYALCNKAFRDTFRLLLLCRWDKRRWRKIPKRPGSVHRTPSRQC
Assay: inhibition of ^3 HPRZ (pirenzepine, [N-methyl-^3 H]) binding to rat cerebral cortex membranes
Parameters: species or system rat (male Wistar
Settings: ^3 HPRZ 1.0 nM, rat cortex, 60 min. at 20° C.; read-out: ^3 HPRZ IC50 (head from b208 on: Pir IC-50)
Answer format reminder: number followed by unit.

These solved cases illustrate the format of a correct answer.
FC(F)(F)CCCOc1nsnc1OC1CN2CCC1CC2 (racemic): 115 nM
CC#CCCOc1nsnc1O[C@@H]1CN2CCC[C@H]1C2 (relative stereo): 2.7 nM

With those in mind, consider the next compound.
In: // returns reported IC50 for input CCCCOc1nsnc1OC1CCCNC1 (racemic)
Out: 227 nM

----------
biological target: muscarinic acetylcholine receptors; assay: inhibition of specific binding of ^3 H-Oxotremorine-M (^3 H-Oxo); conditions: ^3 H-Oxotremorine 1.0 nM, rat cortex, 30 min. at 25° C.
endpoint name: IC50
Answer format reminder: number followed by unit.

These solved cases illustrate the format of a correct answer.
CCCCSc1nsnc1OCCN(CC)CC: 86 nM
CC#CCOc1nsnc1OC1CN2CCC1CC2 (racemic): 7.9 nM

With those in mind, consider the next compound.
In: // returns reported IC50 for input CCCCCSc1nsnc1O[C@@H]1CN2CCC1CC2
Out: 6.4 nM

----------
biological target: muscarinic receptors (M1 -site, pirenzepine sensitive site) (Rattus norvegicus, UniProt P08482); construct: from tissue; host or cells: cerebral cortex membranes of male Wistar rats; test: inhibition of ^3 HPRZ (pirenzepine, [N-methyl-^3 H]) binding to rat cerebral cortex membranes; design: species or system rat (male Wistar
The entries below come with measured IC50 values attached.
Express the result in µM but write the number alone.

These solved cases illustrate the format of a correct answer.
Fc1ccc(CSc2nsnc2OC2CN3CCC2CC3)cc1 (racemic) [Compound 42]: 0.0093
FC(F)(F)c1ccc(SCCSc2nsnc2OC2CN3CCC2CC3)s1 (racemic) [Compound 55]: 0.023
FC(F)(F)C(F)(F)C(F)(F)COc1nsnc1OC1CN2CCC1CC2 (racemic) [Compound 69]: 0.02
c1csc(SCCSc2nsnc2OC2CN3CCC2CC3)c1 (racemic) [Compound 19]: 0.0075
c1ccc(OCCSc2nsnc2OC2CN3CCC2CC3)cc1 (racemic) [Compound 44]: 0.015

In: // returns reported IC50 for input C1CC(COc2nsnc2OC2CN3CCC2CC3)C1 (racemic) [Compound 124]
Out: 0.054

In: // returns reported IC50 for input Fc1ccc(OCCSc2nsnc2OC2CN3CCC2CC3)cc1 (racemic) [Compound 207]
Out: 0.006

In: // returns reported IC50 for input CCCCCSc1nsnc1O[C@H]1CN2CCC1CC2 [Compound 38]
Out: 0.0019

----------
molecular target: muscarinic acetylcholine receptors; assay: inhibition of specific binding of ^3 H-Oxotremorine-M (^3 H-Oxo); set-up: species or system rat (male Wistar; details: ^3 H-Oxotremorine 1.0 nM, rat cortex, 30 min. at 25° C.
The entries below come with measured IC50 values attached.
Express the result in nM but write the number alone.

COc1ccc(CCCOc2nsnc2O[C@@H]2CN3CCC[C@H]2C3)cc1 (relative stereo) [Compound 193]: 3.7

In: // returns reported IC50 for input CCCCNc1nsnc1OC1CN2CCC1CC2 (racemic) [Compound 75]
Out: 65

In: // returns reported IC50 for input CCCCSc1nsnc1OC1CN2CCC1CC2 (racemic) [Compound 14]
Out: 1.3

In: // returns reported IC50 for input Fc1ccc(OCCSc2nsnc2OC2CN3CCC2CC3)cc1 (racemic) [Compound 207]
Out: 2.4

----------
target: muscarinic acetylcholine receptors; test: inhibition of specific binding of ^3 H-Oxotremorine-M (^3 H-Oxo); details: ^3 H-Oxotremorine 1.0 nM, rat cortex, 30 min. at 25° C.
endpoint name: pIC50
Entry type: numeric. Quantity: pIC50, the -log10 of concentration in molar units.

These solved cases illustrate the format of a correct answer.
CCCCSc1nsnc1OCC1CN2CCC1CC2 (racemic): 7.64
C/C=C/COc1nsnc1OC1CN2CCC1CC2 (mixture of isomers): 7.91
c1csc(Sc2nsnc2OC2CN3CCC2CC3)c1 (racemic): 7.72
Clc1nsnc1O[C@@H]1CN2CCC[C@@H]1C2 (relative stereo): 7.27

In: // returns reported pIC50 for input CCCCCCc1nsnc1OC1CN2CCC1CC2 (racemic)
Out: 7.06
